Activity listing for selected molecules.
- TEST_TARGET: Serine/threonine-protein kinase LATS (Homo sapiens) (UniProt Q9NRM7+O95835)
- RUN_DESCRIPTION: Inhibition of LATS in human corneal endothelium cells assessed as induction of cell expansion by measuring cell density at 10 uM by Sytox orange dye based epifluorescence microscopy

Answered cases to consult:
O[C@H]1CCC[C@@H]1Nc1nc(-c2ccncc2)nc2cnccc12
25 /mm2
FC(F)(F)C1(Nc2nc(-c3ccncc3)nc3cnccc23)CCC1
3300 /mm2
CCCNc1nc(-c2c[nH]nc2C(F)(F)F)nc2cnccc12
1890 /mm2
FC(F)(F)C1CN(c2nc(-c3ccncc3)nc3cnccc23)CCN1 (stereo not given)
2070 /mm2
CC(C)Nc1nc(-c2ccncc2)nc2cnccc12
3380 /mm2

Given the molecule CC(C)(C)Nc1cc(-c2ccncc2)nc2cnccc12 , what is its reported Activity?
4310 /mm2

Record request: Activity value, item CC(C)(CO)Nc1nc(-c2ccncc2)nc2cnccc12
2500 /mm2

I would be grateful if you could share the reported Activity for CCCNc1nc(-c2ccncc2)nc2cnccc12 .
3270 /mm2

Which Activity is listed for CC(C)(O)CC(C)(C)Nc1nc(-c2ccncc2)nc2cnccc12 ?
3870 /mm2

Which Activity value belongs to c1cc(-c2nc(NC3CCCC3)c3ccncc3n2)ccn1 ?
1700 /mm2

###

- TEST_TARGET: Serine/threonine-protein kinase LATS1 (Homo sapiens, UniProt O95835)
- Sequence (O95835 whole entry): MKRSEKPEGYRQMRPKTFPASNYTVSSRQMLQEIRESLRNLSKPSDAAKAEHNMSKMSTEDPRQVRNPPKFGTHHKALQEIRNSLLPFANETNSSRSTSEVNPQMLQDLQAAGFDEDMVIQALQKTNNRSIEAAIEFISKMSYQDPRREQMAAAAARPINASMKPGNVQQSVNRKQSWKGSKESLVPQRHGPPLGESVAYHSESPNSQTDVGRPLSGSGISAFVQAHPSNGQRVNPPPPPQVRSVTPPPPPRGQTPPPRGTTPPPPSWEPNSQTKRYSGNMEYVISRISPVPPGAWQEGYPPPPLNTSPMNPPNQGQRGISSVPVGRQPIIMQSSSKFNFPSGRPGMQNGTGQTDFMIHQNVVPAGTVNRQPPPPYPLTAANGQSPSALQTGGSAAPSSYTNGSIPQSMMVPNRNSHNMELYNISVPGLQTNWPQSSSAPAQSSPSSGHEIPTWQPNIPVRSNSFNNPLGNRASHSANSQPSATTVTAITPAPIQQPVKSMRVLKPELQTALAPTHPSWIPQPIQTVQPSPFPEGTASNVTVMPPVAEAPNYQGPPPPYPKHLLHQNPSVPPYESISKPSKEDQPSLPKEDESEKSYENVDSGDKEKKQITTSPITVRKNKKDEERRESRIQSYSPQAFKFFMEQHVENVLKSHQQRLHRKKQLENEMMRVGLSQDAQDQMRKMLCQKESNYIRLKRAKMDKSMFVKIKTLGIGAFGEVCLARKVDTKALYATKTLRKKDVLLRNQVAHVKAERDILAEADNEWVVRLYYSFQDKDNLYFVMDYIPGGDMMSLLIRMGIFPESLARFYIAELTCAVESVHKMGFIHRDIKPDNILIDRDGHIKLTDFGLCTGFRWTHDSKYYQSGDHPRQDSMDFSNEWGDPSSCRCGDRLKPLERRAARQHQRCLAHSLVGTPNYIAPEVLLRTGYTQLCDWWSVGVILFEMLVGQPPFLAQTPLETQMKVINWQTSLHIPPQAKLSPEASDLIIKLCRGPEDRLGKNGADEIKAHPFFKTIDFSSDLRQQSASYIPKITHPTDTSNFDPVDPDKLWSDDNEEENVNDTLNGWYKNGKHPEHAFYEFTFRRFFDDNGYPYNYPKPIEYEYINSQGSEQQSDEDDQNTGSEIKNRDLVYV
pIC50: −log10 of the molar value.
REPORTED_PROPERTY: pIC50

Any idea what its pIC50 is? The compound is O=C(O)CCCNc1nc(-c2ccncc2)nc2cnccc12
< 5.60

###

The following molecules are shown together with reported Drug uptake values.
- RUN_DESCRIPTION: Drug level in post wash cell pellets of human limbal stem cells by LC-MS analysis
- Format: ADME

Using the record for CC(C)N(C)c1nc(-c2ccncc2)nc2cnccc12 , report its Drug uptake.
13.5 to 46.5 nM

Look at this molecule and give its reported Drug uptake. CC(C)(C)Nc1cc(-c2ccncc2)nc2cnccc12
0.315 to 11 nM

Can you share its Drug uptake? I mean this molecule: CC(C)(O)COCC(C)(C)Nc1nc(-c2ccncc2)nc2cnccc12
7.32 to 14.4 nM

###

- TEST_TARGET: Serine/threonine-protein kinase LATS (Homo sapiens) (UniProt Q9NRM7+O95835)
- RUN_DESCRIPTION: Inhibition of LATS in human limbal epithelial cells assessed as induction of limbal stem cell expansion by measuring expansion factor ratio at 10 uM measured after 2 weeks by p63alpha expression detection based immunohistochemistry relative to control
- Parameters: scale not given: the % may be the effect or the level left
REPORTED_PROPERTY: Activity

Reference set (3 entries):
c1cc(-c2nc(NC3CCCC3)c3ccncc3n2)ccn1
57 to 97%
CCCNc1nc(-c2ccncc2)nc2cnccc12
57 to 97%
CC(C)Nc1nc(-c2ccncc2)nc2cnccc12
57 to 97%

Could you tell me which Activity is on file for CC(C)(O)CC(C)(C)Nc1nc(-c2ccncc2)nc2cnccc12 ?
57 to 97%

Value lookup for Activity; key = O[C@H]1CCC[C@@H]1Nc1nc(-c2ccncc2)nc2cnccc12
57 to 97%

Param item = CC(C)(CO)Nc1nc(-c2ccncc2)nc2cnccc12 ; retrieve measured Activity.
57 to 97%

Name the reported Activity value associated with the compound Cc1n[nH]cc1-c1nc(NC2(C)CC2)c2ccncc2n1
57 to 97%

###

- RUN_DESCRIPTION: Total drug level in cell pellets of human limbal stem cells by LC-MS analysis
- Format: ADME
REPORTED_PROPERTY: Drug uptake (pg)
Entry rule: numbers only, all in pg.

CC(C)(C)Nc1cc(-c2ccncc2)nc2cnccc12
83
CC(C)N(C)c1nc(-c2ccncc2)nc2cnccc12
415
C[C@H](N(C)c1nc(-c2ccncc2)nc2cnccc12)C(F)(F)F
340

Given CC(C)(O)COCC(C)(C)Nc1nc(-c2ccncc2)nc2cnccc12 , state its recorded Drug uptake.
178

###

- RUN_DESCRIPTION: Drug level in cell pellets of human corneal endothelium cells by LC-MS analysis
- Assay type: ADME
REPORTED_PROPERTY: Drug uptake

Bench note: what Drug uptake did C[C@H](N(C)c1nc(-c2ccncc2)nc2cnccc12)C(F)(F)F show?
0.004 to 0.071 nM

###

- TEST_TARGET: Serine/threonine-protein kinase LATS (Homo sapiens) (UniProt Q9NRM7+O95835)
- RUN_DESCRIPTION: Inhibition of LATS in human corneal endothelium cells assessed as induction of cell expansion by measuring cell density at 10 uM by Sytox orange dye based epifluorescence microscopy
REPORTED_PROPERTY: Activity

Solved entries (count: 4):
CC(C)N(C)c1nc(-c2ccncc2)nc2cnccc12
3910 /mm2
FC(F)(F)C1(Nc2nc(-c3ccncc3)cc3cnccc23)CC1
2780 /mm2
CC1CCCC1Nc1nc(-c2ccncc2)nc2cnccc12 (stereo not given)
1630 /mm2
Cc1n[nH]cc1-c1nc(NC2(C)CC2)c2ccncc2n1
2030 /mm2

Now examine the next entry.
Could you share which Activity value was measured for CC(C)(Nc1nc(-c2ccncc2Cl)nc2cnccc12)C(F)(F)F ?
1180 /mm2
